# reported LD50; entries follow
Assay: Comparison of death rate, toxicity and acute general tolerability in mice by intravenous administration
Assay type: in vivo
Settings: mouse, in vivo, iv, mice, intravenous (caudal vein), groups of 10 animals, Finney-Probits method
METRIC_NAME: LD50 (mg/kg)

• NCC[C@H](O)C(=O)N[C@H]1C[C@@H](N)[C@H](O[C@H]2O[C@H](CO)[C@@H](O)[C@H](N)[C@H]2O)[C@@H](O)[C@@H]1O[C@H]1O[C@H](CN)[C@@H](O)[C@H](O)[C@H]1O [BB-K29] = 126
• NCC[C@H](O)C(=O)N[C@@H]1C[C@H](N)[C@@H](O[C@H]2O[C@H](CN)[C@@H](O)[C@H](O)[C@H]2O)[C@H](O)[C@H]1O[C@H]1O[C@H](CO)[C@@H](O)[C@H](N)[C@H]1O [BB-K8 Bristol] = 202
• NCC[C@H](O)C(=O)N[C@@H]1[C@@H](O)[C@@H](O[C@@H]2[C@@H](O)[C@H](O[C@H]3O[C@H](CN)[C@@H](O)[C@H](O)[C@H]3O)[C@@H](N)C[C@H]2N)O[C@H](CO)[C@H]1O [BB-K11] = 356
• NCC[C@H](O)C(=O)N[C@@H]1[C@@H](O)[C@@H](O[C@@H]2[C@@H](O)[C@H](O[C@H]3O[C@H](CN)[C@@H](O)[C@H](O)[C@H]3O)[C@@H](N)C[C@H]2NC(=O)[C@@H](O)CCN)O[C@H](CO)[C@H]1O [Diacylate (N-1 and N-3")] = 268
